Would you mind telling me the reported relative affinity of each entry?
target: T1, HLA-DR4 (HLA-DRB1*04:01) (human); experiment: competition ELISA vs biotin-HA 306-318;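 also: HLA and competitor incubated 24 to 72 h, maximal signal taken from wells lacking competitor, background from wells lacking HLA molecule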
T1 construct: mature; purified from homozygous EBV-transformed lymphoblastoid cells with antibody L243
No end group written: not given here.
// return a plain number; no unit text

Recorded result, PQLNSALVQDLAKAV-NH2 [CCNB1 416-430] , relative affinity: 54

Recorded result, AKISTLPQLNSALVQ-NH2 [CCNB1 410-424] , relative affinity: 408

Recorded result, LHFLRRASKIGEVDV-NH2 [CCNB1 303-317] , relative affinity: 1390

Recorded result, NSALVQDLAKAVAKV-NH2 [CCNB1 419-433] , relative affinity: 333

Recorded result, MEMKILRALNFGLGR-NH2 [CCNB1 285-299] , relative affinity: 7

Recorded result, MALRVTRNSKINAEN-NH2 [CCNB1 1-15] , relative affinity: 46

Recorded result, AKYLMELTMLDYDMV-NH2 [CCNB1 323-337] , relative affinity: 0.2

Recorded result, EPILVDTASPSPMET-NH2 [CCNB1 118-132] , relative affinity: 0.3

Recorded result, LPVMQHLAKNVVMVN-NH2 [CCNB1 377-391] , relative affinity: 373

Recorded result, HQIRQMEMKILRALN-NH2 [CCNB1 280-294] , relative affinity: 0.4

Recorded result, HTLAKYLMELTMLDY-NH2 [CCNB1 320-334] , relative affinity: 1

Recorded result, ESLLPVMQHLAKNVV-NH2 [CCNB1 374-388] , relative affinity: 91
